Details: in water, 353.14 K
result type: solubility (mole fraction)

>>> numeric_result("O=P(c1ccccc1)(c1ccccc1)c1cc(O)ccc1O")
0.00018

* * *

Conditions: in methanol, 303.87 K
result type: solubility (mole fraction)

>>> numeric_result("O=P(c1ccccc1)(c1ccccc1)c1cc(O)ccc1O")
0.00814

* * *

Settings: in water, 363.27 K
result type: solubility (mole fraction)

>>> numeric_result("O=P(c1ccccc1)(c1ccccc1)c1cc(O)ccc1O")
0.00019

* * *

Conditions: in water, 313.34 K
result type: solubility (mole fraction)

>>> result("O=P(c1ccccc1)(c1ccccc1)c1cc(O)ccc1O")
0.00013

* * *

Settings: in acetone, 299.45 K
result type: solubility (mole fraction)

>>> numeric_result("O=P(c1ccccc1)(c1ccccc1)c1cc(O)ccc1O")
0.00175
